biological target: SYK (Homo sapiens); construct: purchased BPS Bioscience, CA, USA; assay: SYK enzyme assay (Flash plate assay / Caliper mobility shift assay); type: biochemical; details: at 3 μM; 100% corresponds to zero effect, −50% corresponds to IC50
Listed here are compounds together with their documented SYK (enzyme assay) % at 3 μM.

c1cncc(Nc2nc3cnc(-c4cccnc4)cn3n2)c1 [Compound A25] | −8@3%
O=C1Cc2cc(Nc3nc4cncc(-c5cnn(CCN6CCOCC6)c5)n4n3)ccc2N1 [Compound A49] | −19@3%
c1ccc2ncc(-c3cncc4nc(Nc5ccc(N6CCOCC6)cc5)nn34)cc2c1 [Compound A32] | −35@3%
c1cc(N2CCOCC2)ccc1Nc1nc2cncc(-c3ccc(CN4CCOCC4)s3)n2n1 [Compound A62] | −5@3%

*Q* Form field: reported SYK (enzyme assay) % at 3 μM of COc1cccc(Nc2nc3cncc(-c4ccc5c(cnn5C)c4)n3n2)c1 [Compound A2]
*A* −29@3%

---

molecular target: GCN2 (Homo sapiens)
Sequence (Q9P2K8 whole entry): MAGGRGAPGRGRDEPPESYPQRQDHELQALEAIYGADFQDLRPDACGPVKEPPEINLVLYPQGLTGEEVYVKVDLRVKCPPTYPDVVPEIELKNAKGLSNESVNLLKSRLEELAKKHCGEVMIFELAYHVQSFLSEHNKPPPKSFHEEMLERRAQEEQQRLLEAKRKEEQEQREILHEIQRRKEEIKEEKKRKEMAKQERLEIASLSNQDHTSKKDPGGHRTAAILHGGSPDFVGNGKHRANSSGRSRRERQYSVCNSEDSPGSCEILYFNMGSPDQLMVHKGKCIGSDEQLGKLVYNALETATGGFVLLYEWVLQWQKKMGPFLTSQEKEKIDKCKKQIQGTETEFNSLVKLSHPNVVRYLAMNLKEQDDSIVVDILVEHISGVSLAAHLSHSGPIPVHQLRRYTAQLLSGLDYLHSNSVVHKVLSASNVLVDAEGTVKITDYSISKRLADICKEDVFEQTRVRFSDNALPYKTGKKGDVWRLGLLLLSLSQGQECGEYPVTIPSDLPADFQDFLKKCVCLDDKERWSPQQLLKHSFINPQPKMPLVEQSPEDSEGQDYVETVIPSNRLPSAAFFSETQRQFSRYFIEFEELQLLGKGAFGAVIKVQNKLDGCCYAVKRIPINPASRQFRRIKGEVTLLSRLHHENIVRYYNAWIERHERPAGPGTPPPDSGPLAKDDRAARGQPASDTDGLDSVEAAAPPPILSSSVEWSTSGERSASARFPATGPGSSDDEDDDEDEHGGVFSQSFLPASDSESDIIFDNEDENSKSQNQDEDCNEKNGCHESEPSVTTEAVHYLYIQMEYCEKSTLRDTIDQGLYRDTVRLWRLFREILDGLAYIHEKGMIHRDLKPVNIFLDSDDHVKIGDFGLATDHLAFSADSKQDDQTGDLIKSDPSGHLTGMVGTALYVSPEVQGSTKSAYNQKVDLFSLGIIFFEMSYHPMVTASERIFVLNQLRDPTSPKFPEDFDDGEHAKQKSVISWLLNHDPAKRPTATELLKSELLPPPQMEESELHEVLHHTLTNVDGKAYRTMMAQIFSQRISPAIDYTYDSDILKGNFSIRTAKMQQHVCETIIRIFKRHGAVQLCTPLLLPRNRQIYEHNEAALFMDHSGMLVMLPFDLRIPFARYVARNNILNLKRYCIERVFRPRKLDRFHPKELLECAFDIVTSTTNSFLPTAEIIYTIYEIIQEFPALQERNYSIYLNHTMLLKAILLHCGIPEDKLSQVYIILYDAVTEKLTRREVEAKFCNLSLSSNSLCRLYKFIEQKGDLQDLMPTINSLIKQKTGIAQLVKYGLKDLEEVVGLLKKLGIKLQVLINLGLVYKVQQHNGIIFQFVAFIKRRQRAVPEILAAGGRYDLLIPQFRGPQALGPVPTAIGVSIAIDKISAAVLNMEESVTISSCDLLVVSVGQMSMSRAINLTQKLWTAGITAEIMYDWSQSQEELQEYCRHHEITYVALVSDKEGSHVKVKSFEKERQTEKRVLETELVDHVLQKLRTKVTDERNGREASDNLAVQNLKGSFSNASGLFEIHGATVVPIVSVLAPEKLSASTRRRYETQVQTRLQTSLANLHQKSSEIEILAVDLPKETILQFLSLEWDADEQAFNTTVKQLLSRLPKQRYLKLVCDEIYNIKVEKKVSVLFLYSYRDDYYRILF
quantity.kind: IC50

Cn1cc(-c2cncc3nc(Nc4ccc5c(c4)CC(=O)N5)nn23)cn1 | < 1000 nM
COc1cc(Nc2nc3cncc(-c4cccc(NS(C)(=O)=O)c4)n3n2)ccc1N1CCN(C)CC1 | < 1000 nM
Cn1cc(-c2cncc3nc(Nc4cccc(C#N)c4)nn23)cn1 | 1000 to 5000 nM

*Q* Form field: IC50 recorded for Cn1cc(-c2cncc3nc(Nc4ccc(C5(C#N)CC5)cc4)nn23)cn1 with GCN2 (Homo sapiens) (enter value)
*A* < 1000 nM

*Q* Look up IC50 with GCN2 (Homo sapiens) for this molecule: c1cncc(Nc2nc3cnc(-c4cccnc4)cn3n2)c1
*A* 1000 to 5000 nM

*Q* # returns recorded IC50 (system: GCN2 (Homo sapiens)) for CN(C)Cc1nc2cc(Nc3nc4cncc(-c5cnn(C)c5)n4n3)ccc2[nH]1
*A* < 1000 nM

*Q* Give recorded IC50 with GCN2 (Homo sapiens) for the following molecule: COc1cccc(Nc2nc3cncc(-c4ccccc4)n3n2)c1
*A* < 1000 nM

*Q* Lab note: need IC50 with GCN2 (Homo sapiens) for entry COc1cccc(Nc2nc3cnc(Br)cn3n2)c1 , please look it up.
*A* < 1000 nM

*Q* Value wanted: IC50 (GCN2 (Homo sapiens)) of entry COc1cc(Nc2nc3cncc(-c4cccc(O)c4)n3n2)ccc1N1CCN(C)CC1
*A* < 1000 nM

*Q* Query for GCN2 (Homo sapiens): what IC50 does the record show for Cn1cc(-c2cncc3nc(NC(=O)C4CCNCC4)nn23)cn1 ?
*A* 5000 to 10000 nM

*Q* Given the entry Cn1ncc2cc(-c3cncc4nc(Nc5ccc6c(c5)NC(=O)C6(C)C)nn34)ccc21 , what IC50 was observed with GCN2 (Homo sapiens)?
*A* 1000 to 5000 nM

*Q* What IC50 appears in the records for this molecule with GCN2 (Homo sapiens)? COc1cccc(Nc2nc3cncc(-c4cnn(C)c4)n3n2)c1
*A* < 1000 nM

---

biological target: GCN2 (Homo sapiens); assay: GCN2 enzyme assay (TR-FRET Lanthascreen, GFP-eIF2alpha substrate); type: biochemical; settings: at 10 μM; 100% corresponds to zero effect, −50% corresponds to IC50
quantity.kind: GCN2 (enzyme assay) % at 10 μM

Solved entries (count: 3):
c1ccc(-c2ccccc2-c2cncc3nc(Nc4ccc(N5CCOCC5)cc4)nn23)cc1 | −4@10%
Cn1cc(-c2ncc3nc(Nc4ccc(N5CCOCC5)cc4)nn3c2-c2cnn(C)c2)cn1 | −8@10%
Cn1cc(-c2c(-c3ccccc3)ncc3nc(Nc4ccc(N5CCOCC5)cc4)nn23)cn1 | 2@10%

*Q* GET /values?readout=GCN2 (enzyme assay) % at 10 μM&item= COc1cc(Nc2nc3cncc(-c4ccccc4-c4ccccc4)n3n2)cc(OC)c1
*A* 3@10%
